meta.source: ChEMBL document CHEMBL4014283

Listed here: items and their measured pIC50.
- SUBJECT OF TEST: Histone deacetylase 8 (Schistosoma mansoni)
- METHOD DESCRIPTION: Inhibition of Schistosoma mansoni KDAC8 using (FAM)-labeled peptide as substrate after 60 mins by microfluidic assay
- RUN PARAMETERS: read-out: IC50
pIC50: −log10 of the molar value.
MEASURED QUANTITY: pIC50

structure_notation=O=C(CCCCN1C(=O)[C@H](Cc2cncn2C(c2ccccc2)(c2ccccc2)c2ccccc2)N=C(c2ccccc2)c2ccccc21)NO subject_of_test="Histone deacetylase 8 (Schistosoma mansoni)" measured_result="< 4.52"
structure_notation=CC(C)(C)OC[C@@H]1N=C(c2ccccc2)c2ccccc2N(CCCCC(=O)NO)C1=O subject_of_test="Histone deacetylase 8 (Schistosoma mansoni)" measured_result="< 4.52"
structure_notation=O=C(CCCCN1C(=O)[C@H](Cc2ccc(O)cc2)N=C(c2ccccc2)c2ccccc21)NO subject_of_test="Histone deacetylase 8 (Schistosoma mansoni)" measured_result="< 4.52"
structure_notation=COC(=O)CCCCN1C(=O)[C@H](CC(=O)OC(C)(C)C)N=C(c2ccccc2)c2ccccc21 subject_of_test="Histone deacetylase 8 (Schistosoma mansoni)" measured_result="< 4.52"
structure_notation=O=C(O)CC[C@@H]1N=C(c2ccccc2)c2ccccc2N(CCCCC(=O)NO)C1=O subject_of_test="Histone deacetylase 8 (Schistosoma mansoni)" measured_result="< 4.52"
structure_notation=CC(C)(C)OC(=O)C[C@@H]1N=C(c2ccccc2)c2ccccc2N(CCCCC(=O)NO)C1=O subject_of_test="Histone deacetylase 8 (Schistosoma mansoni)" measured_result="< 4.52"
structure_notation=Nc1ccccc1NC(=O)c1ccc(CNC(=O)OCc2cccnc2)cc1 subject_of_test="Histone deacetylase 8 (Schistosoma mansoni)" measured_result="< 4.52"
structure_notation=C[C@@H](OCc1ccccc1)[C@@H]1N=C(c2ccccc2)c2ccccc2N(CCCCC(=O)NO)C1=O subject_of_test="Histone deacetylase 8 (Schistosoma mansoni)" measured_result="< 4.52"
structure_notation=CC(=O)SCC/C=C/[C@@H]1CC(=O)NCc2ccc(cc2)C2=N[C@@](C)(CS2)C(=O)N[C@@H](C(C)C)C(=O)O1 subject_of_test="Histone deacetylase 8 (Schistosoma mansoni)" measured_result="< 4.52"

###

inhibition at 1 h, 30 µM values for the compounds below.
- SUBJECT OF TEST: KDAC8 (histone deacetylase 8) (Homo sapiens, UniProt Q9BY41)
- Sequence (Q9BY41 whole entry): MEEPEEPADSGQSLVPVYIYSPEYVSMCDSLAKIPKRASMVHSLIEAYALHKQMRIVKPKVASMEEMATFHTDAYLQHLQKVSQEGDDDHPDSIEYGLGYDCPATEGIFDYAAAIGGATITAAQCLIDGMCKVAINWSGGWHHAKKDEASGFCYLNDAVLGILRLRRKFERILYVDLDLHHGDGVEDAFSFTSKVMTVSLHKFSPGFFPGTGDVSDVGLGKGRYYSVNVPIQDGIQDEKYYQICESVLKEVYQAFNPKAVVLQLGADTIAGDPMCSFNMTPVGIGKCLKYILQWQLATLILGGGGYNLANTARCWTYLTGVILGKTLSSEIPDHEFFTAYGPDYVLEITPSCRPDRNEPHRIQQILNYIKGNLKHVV
- METHOD DESCRIPTION: Inhibition of full length human C-terminal His-tagged KDAC8 expressed in baculovirus expression system at 30 uM using (FAM)-labeled peptide as substrate after 60 mins by microfluidic assay relative to control
- RUN PARAMETERS: probe (FAM)-labeled peptide
MEASURED QUANTITY: inhibition at 1 h, 30 µM (%)

structure_notation=O=C(O)Cc1ccc(/N=N/c2c(O)c(C(=O)O)cc3ccccc23)cc1 subject_of_test="KDAC8 (histone deacetylase 8) (Homo sapiens, UniProt Q9BY41)" units_symbol=% measured_result=19
structure_notation=O=[N+]([O-])c1c(N2CCN(CCO)CC2)nc2ccccn12 subject_of_test="KDAC8 (histone deacetylase 8) (Homo sapiens, UniProt Q9BY41)" units_symbol=% measured_result=31
structure_notation=Cc1cc(C)n(C(=N)NC(=O)c2ccc([N+](=O)[O-])cc2)n1 subject_of_test="KDAC8 (histone deacetylase 8) (Homo sapiens, UniProt Q9BY41)" units_symbol=% measured_result=4
structure_notation=CCOC(=O)Nc1ccc2nc(N3CCCCCC3)sc2c1 subject_of_test="KDAC8 (histone deacetylase 8) (Homo sapiens, UniProt Q9BY41)" units_symbol=% measured_result=6
structure_notation=S=C(SCc1cc(Cl)cc2c1OCOC2)N1CCSCC1 subject_of_test="KDAC8 (histone deacetylase 8) (Homo sapiens, UniProt Q9BY41)" units_symbol=% measured_result=4

###

Each entry below carries its reported inhibition at 1 h, 30 µM.
- SUBJECT OF TEST: KDAC8 (histone deacetylase 8) (Homo sapiens, UniProt Q9BY41)
- METHOD DESCRIPTION: Inhibition of full length human C-terminal His-tagged KDAC8 expressed in baculovirus expression system at 30 uM using (FAM)-labeled peptide as substrate after 60 mins by microfluidic assay relative to control
- RUN PARAMETERS: probe (FAM)-labeled peptide
MEASURED QUANTITY: inhibition at 1 h, 30 µM (%)

compound=CCOC(=O)c1cc2c(OC)c(OC)ccc2c2ncc(C#N)c(O)c12 units_symbol=% measured_result=15
compound=O=C1Nc2cc(Cl)c(Cl)cc2S(=O)(=O)N1O units_symbol=% measured_result=23.5
compound=CCOC(=O)Cc1cc(=O)[nH]n(-c2ccccc2)c1=O units_symbol=% measured_result=3
compound=Cc1cc(OCCCCOc2ccc(C#N)cc2)ccc1[N+](=O)[O-] units_symbol=% measured_result=19
compound=COc1ccc([N+](=O)[O-])cc1NS(=O)(=O)c1ccc(C)cc1 units_symbol=% measured_result=24
compound=O=C(NCc1ccco1)Nc1cccc([N+](=O)[O-])c1 units_symbol=% measured_result=7
compound=Nc1cc(Cl)c(Cl)cc1S(=O)(=O)NO units_symbol=% measured_result=10.4
compound="COC(=O)CC1(C(=O)OC)Nc2cc(Cl)c(Cl)cc2S(=O)(=O)N1 (stereo unspecified)" units_symbol=% measured_result=17
compound=O=C1c2ccccc2C2=C3C(O)=NN=C3CCN12 units_symbol=% measured_result=5
compound="FC(F)(F)c1cccc(OCC2CN=C(S)O2)c1 (stereo unspecified)" units_symbol=% measured_result=16
compound=Cc1c(COC(=O)N(C)C)c(COC(=O)NC(C)C)c2n1CS(=O)(=O)C2 units_symbol=% measured_result=7

###

- SUBJECT OF TEST: UniProtKB A5H660
- METHOD DESCRIPTION: Inhibition of Schistosoma mansoni KDAC8 using (FAM)-labeled peptide as substrate after 60 mins by microfluidic assay
- RUN PARAMETERS: read-out: IC50
pIC50: −log10 of the molar value.
MEASURED QUANTITY: pIC50

compound=O=C(CCCCN1C(=O)[C@H](Cc2cc3ccccc3[nH]2)N=C(c2ccccc2)c2ccccc21)NO measured_result="< 4.52"
compound=O=C(C[C@@H]1N=C(c2ccccc2)c2ccccc2NC1=O)NC(c1ccccc1)(c1ccccc1)c1ccccc1 measured_result="< 4.52"
compound=CC(C)(C)OC(=O)n1cc(C[C@@H]2N=C(c3ccccc3)c3ccccc3NC2=O)c2ccccc21 measured_result="< 4.52"
compound=O=C(CCCCN1C(=O)[C@H](CO)N=C(c2ccccc2)c2ccccc21)NO measured_result="< 4.52"
compound=COC(=O)CCCCN1C(=O)[C@H](Cc2cncn2C(c2ccccc2)(c2ccccc2)c2ccccc2)N=C(c2ccccc2)c2ccccc21 measured_result="< 4.52"
compound=O=C(CCCNC(=O)CC[C@@H]1N=C(c2ccccc2)c2ccccc2NC1=O)NO measured_result=5.19
compound=CC(C)C[C@@H]1N=C(c2ccccc2)c2ccccc2NC1=O measured_result="< 4.52"
compound=O=C(C[C@@H]1N=C(c2ccccc2)c2ccccc2NC1=O)NO measured_result="< 4.52"
compound=COC(=O)CCCCN1C(=O)[C@H](C(C)C)N=C(c2ccccc2)c2ccccc21 measured_result="< 4.52"
compound=O=C(CCCCN1C(=O)[C@H](CC(=O)NC(c2ccccc2)(c2ccccc2)c2ccccc2)N=C(c2ccccc2)c2ccccc21)NO measured_result=4.58
compound=CC(C)[C@@H]1N=C(c2ccccc2)c2ccccc2NC1=O measured_result="< 4.52"
compound=O=C(CCCCN1C(=O)[C@H](CCC(=O)NO)N=C(c2ccccc2)c2ccccc21)NO measured_result="< 4.52"
compound=C[C@H](OCc1ccccc1)[C@@H]1N=C(c2ccccc2)c2ccccc2N(CCCCC(=O)O)C1=O measured_result="< 4.52"
compound=Nc1ccccc1NC(=O)c1ccc(-c2cn(CCc3ccsc3)nn2)cc1 measured_result="< 4.52"
compound=O=C(CCCCN1C(=O)CN=C(c2ccccc2)c2ccccc21)NO measured_result="< 4.52"
compound=NCCCC[C@@H]1N=C(c2ccccc2)c2ccccc2N(CCCCC(=O)NO)C1=O measured_result="< 4.52"
compound=O=C(O)CCCCN1C(=O)[C@H](CC(=O)NC(c2ccccc2)(c2ccccc2)c2ccccc2)N=C(c2ccccc2)c2ccccc21 measured_result="< 4.52"
compound="CCC(=O)CCCCC[C@@H]1NC(=O)C2CCCCN2C(=O)[C@H](C(C)CC)NC(=O)[C@H](Cc2cn(OC)c3ccccc23)NC1=O (stereo partly drawn)" measured_result=4.54

###

- SUBJECT OF TEST: Histone deacetylase 8 (Schistosoma mansoni) (UniProt A5H660)
- Sequence (whole entry): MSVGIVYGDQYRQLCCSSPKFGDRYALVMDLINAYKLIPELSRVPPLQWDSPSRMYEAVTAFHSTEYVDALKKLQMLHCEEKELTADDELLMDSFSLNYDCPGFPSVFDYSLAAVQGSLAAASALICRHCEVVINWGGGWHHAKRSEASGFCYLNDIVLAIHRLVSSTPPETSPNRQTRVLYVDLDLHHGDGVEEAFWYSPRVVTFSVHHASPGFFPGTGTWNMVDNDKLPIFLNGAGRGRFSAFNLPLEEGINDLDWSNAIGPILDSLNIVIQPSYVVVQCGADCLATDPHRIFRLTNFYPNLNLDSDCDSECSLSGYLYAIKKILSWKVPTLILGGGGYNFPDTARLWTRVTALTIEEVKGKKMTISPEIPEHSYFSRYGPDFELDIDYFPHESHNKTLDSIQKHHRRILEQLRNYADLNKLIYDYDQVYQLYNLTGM
- METHOD DESCRIPTION: Inhibition of Schistosoma mansoni KDAC8 at 30 uM using (FAM)-labeled peptide as substrate after 60 mins by microfluidic assay
// reported inhibition for each item listed
MEASURED QUANTITY: inhibition (%)

structure_notation=CC(C)[C@@H]1NC(=O)[C@@H]2CCCN2C(=O)[C@H]2CCCN2C(=O)C[C@H](C(=O)NCCCC(=O)O)NC1=O measured_result=0
structure_notation=CC(C)(C)OC(=O)n1c(C[C@@H]2N=C(c3ccccc3)c3ccccc3N(CCCCC(=O)NO)C2=O)cc2ccccc21 measured_result=12.5
structure_notation=NC(=O)C[C@@H]1N=C(c2ccccc2)c2ccccc2N(CCCCC(=O)NO)C1=O measured_result=0
structure_notation=Cc1cc(C)n(C(=N)NC(=O)c2ccc([N+](=O)[O-])cc2)n1 measured_result=2
